target: FAAH (Mus musculus, UniProt O08914)
Construct: Proteomes (mouse brain membrane fraction or cell lysates); from tissue; host or cells: mouse brain membrane fraction (or cell lysates, not specified)
Sequence (O08914 whole entry): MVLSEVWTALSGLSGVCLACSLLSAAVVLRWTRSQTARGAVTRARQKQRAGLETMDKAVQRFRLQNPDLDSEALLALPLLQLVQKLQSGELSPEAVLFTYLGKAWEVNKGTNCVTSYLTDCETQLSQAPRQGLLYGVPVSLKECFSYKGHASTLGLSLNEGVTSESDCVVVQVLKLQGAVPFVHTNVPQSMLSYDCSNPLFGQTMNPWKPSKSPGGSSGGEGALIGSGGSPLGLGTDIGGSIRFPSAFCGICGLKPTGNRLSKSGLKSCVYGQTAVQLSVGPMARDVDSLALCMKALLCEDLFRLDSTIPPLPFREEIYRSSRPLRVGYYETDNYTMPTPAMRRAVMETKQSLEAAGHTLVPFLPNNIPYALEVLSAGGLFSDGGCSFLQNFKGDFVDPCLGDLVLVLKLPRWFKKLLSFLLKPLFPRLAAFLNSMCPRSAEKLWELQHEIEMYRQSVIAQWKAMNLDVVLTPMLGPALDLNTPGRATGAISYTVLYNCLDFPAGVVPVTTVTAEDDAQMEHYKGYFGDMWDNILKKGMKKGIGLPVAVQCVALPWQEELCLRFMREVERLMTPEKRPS
method.notes: In vitro competitive activity-based protein profiling (gel-based, FP-Rh or HT-01 probe)
Format: biochemical
condition.details: 10 μM inhibitor; read-out: % Inhibition at 10 μM, B = FAAH
measure.name: inhibition at 10 µM

The examples below pair each entry with its known result.
Note to self: inhibition at 10 µM recorded for Cc1cnn(C(=O)N2CCCN(C)CC2)c1 [Example 167] was < 25%

Documented inhibition at 10 µM of O=C(N1CCN(Cc2c(N3CCCC3)cccc2C(F)(F)F)CC1)n1cc(F)cn1 [Example 113] : > 75%

In plain terms, O=C(c1cnn(C(=O)N2CCN(Cc3cncnc3)CC2)c1)N1CCOCC1 [Example 56] has a documented inhibition at 10 µM of < 25%

***
# inhibition at 10 µM (compound: CCN(Cc1ccccc1OC)C(=O)n1cc(Cl)cn1 [Example 127] ) is > 75%

// sample CN1CCN(C(=O)n2cc(C#N)cn2)CC1 [Example 175] , its inhibition at 10 µM was > 75%

Value of measured inhibition at 10 µM for the entry N#Cc1cnn(C(=O)N2CCOCC2)c1 [Example 205] : > 75%

So, Cc1cnn(C(=O)N(C)CCN(C)C(=O)c2ccccc2)c1 [Example 172] ? Its inhibition at 10 µM was < 25%

So, O=C(c1cnn(C(=O)N2CCN(Cc3nccs3)CC2)c1)N1CCCC1 [Example 83] ? Its inhibition at 10 µM was > 75%

For CN(Cc1cccc(-c2ccncc2)c1)C(=O)n1cc(Cl)cn1 [Example 220] the compound record lists inhibition at 10 µM as > 75%

Data origin, for the record: patent US10093630B2
